Test system: MZ2-MEL;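 also: growth inhibition of MZ2-MEL cells read out with a cell viability assay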
Experiment: cells
Assay type: functional, cell-based, Homo sapiens
Details: mz2-mel
Description: SANGER: Inhibition of human MZ2-MEL cell growth in a cell viability assay.
pIC50: −log10 of the molar value.

{"Chemical Structure": "Cc1cc([C@@H](C)Nc2ccccc2C(=O)O)c2nc(N3CCOCC3)cc(=O)n2c1", "pIC50": "< 5.29"}

----------
Recorded pIC50 for the following molecules
System: 5637
Assay: cells
Assay type: functional, cell-based, Homo sapiens
Settings: Homo sapiens
Description: SANGER: Inhibition of human 5637 cell growth in a cell viability assay.
pIC50: −log10 of the molar value.

{"Chemical Structure": "COC(=O)CNC(=O)C(=O)OC", "Modifier": "=", "pIC50": 3.07}
{"Chemical Structure": "O=C(NOCC1CC1)c1ccc(F)c(F)c1Nc1ccc(I)cc1Cl", "Modifier": "<", "pIC50": 5.00}
{"Chemical Structure": "C=CCNC1=C2C[C@@H](C)C[C@H](OC)[C@H](O)[C@@H](C)/C=C(\\C)[C@H](OC(N)=O)[C@@H](OC)/C=C\\C=C(/C)C(=O)NC(=CC1=O)C2=O", "Modifier": "=", "pIC50": 7.24}
{"Chemical Structure": "O=C(c1cc(Cc2n[nH]c(=O)c3ccccc23)ccc1F)N1CCN(C(=O)C2CC2)CC1", "Modifier": "<", "pIC50": 5.30}

----------
System: OC-314
Assay: cells
Assay type: functional, cell-based
Conditions: Homo sapiens
Description: SANGER: Inhibition of human OC-314 cell growth in a cell viability assay.
pIC50: −log10 of the molar value.
Measured Quantity: pIC50

{"Molecule": "O=C1N=C(NCc2cccs2)S/C1=C\\c1ccc2ncccc2c1", "Assay System": "OC-314", "Test Result": "< 5.30"}
{"Molecule": "COc1cc(F)c(F)c(Nc2ccc(I)cc2F)c1NS(=O)(=O)C1(CC(O)CO)CC1 (stereo not drawn)", "Assay System": "OC-314", "Test Result": "< 5.30"}
{"Molecule": "CC(=O)O[C@@H]1[C@@H](OC(C)=O)[C@@H](O)[C@H](Oc2c(-c3ccc(O)cc3)oc3cc(O)cc(O)c3c2=O)O[C@H]1C", "Assay System": "OC-314", "Test Result": "< 5.00"}

----------
Recorded IC50 for the following molecules
Tested on: LB1047-RCC;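 also: inhibition of cell growth, determined with a cell viability assay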
Experiment: cells
Type: functional, cell-based, Homo sapiens
Settings: Homo sapiens, LB1047-RCC
Description: SANGER: Inhibition of human LB1047-RCC cell growth in a cell viability assay.

{"Molecule": "CC(=O)O[C@@H]1[C@@H](OC(C)=O)[C@@H](O)[C@H](Oc2c(-c3ccc(O)cc3)oc3cc(O)cc(O)c3c2=O)O[C@H]1C", "IC50": "> 10 µM"}
{"Molecule": "O=C1N=C(NCc2cccs2)S/C1=C\\c1ccc2ncccc2c1", "IC50": "3.24 µM"}
{"Molecule": "CC1=C2C[C@H]3[C@@H](CC=C4C[C@@H](O)CC[C@@]43C)[C@@H]2CC[C@]12O[C@@H]1C[C@H](C)CN[C@H]1[C@H]2C [CYCLOPAMINE]", "IC50": "> 16 µM"}
{"Molecule": "CS(=O)(=O)CCNCc1ccc(-c2ccc3ncnc(Nc4ccc(OCc5cccc(F)c5)c(Cl)c4)c3c2)o1 [LAPATINIB]", "IC50": "> 2 µM"}

----------
Test system: OCUB-M;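 also: growth inhibition of the cancer cell line, read out through a cell viability assay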
Test: cells
Type: functional, cell-based, Homo sapiens
Conditions: Homo sapiens, OCUB-M
Description: SANGER: Inhibition of human OCUB-M cell growth in a cell viability assay.
pIC50: −log10 of the molar value.
Recorded pIC50 for the following compounds

{"Compound": "COc1ccc(C2=N[C@@H](c3ccc(Cl)cc3)[C@@H](c3ccc(Cl)cc3)N2C(=O)N2CCNC(=O)C2)c(OC(C)C)c1", "Modifier": "<", "pIC50": 5.10}
{"Compound": "CN1CCN(CCOc2cc(OC3CCOCC3)c3c(Nc4c(Cl)ccc5c4OCO5)ncnc3c2)CC1", "Modifier": "<", "pIC50": 5.70}
{"Compound": "Cn1cncc1[C@@](N)(c1ccc(Cl)cc1)c1ccc2c(c1)c(-c1cccc(Cl)c1)cc(=O)n2C", "Modifier": "=", "pIC50": 6.33}
{"Compound": "CN(Cc1cnc2nc(N)nc(N)c2n1)c1ccc(C(=O)N[C@@H](CCC(=O)O)C(=O)O)cc1 [METHOTREXATE]", "Modifier": "<", "pIC50": 6.70}
{"Compound": "CC(=O)O[C@@]12CO[C@@H]1C[C@H](O)[C@@]1(C)C(=O)[C@H](O)C3=C(C)[C@@H](OC(=O)[C@H](O)[C@@H](NC(=O)OC(C)(C)C)c4ccccc4)C[C@@](O)([C@@H](OC(=O)c4ccccc4)[C@H]21)C3(C)C", "Modifier": "=", "pIC50": 8.36}
{"Compound": "CS(=O)(=O)CCNCc1ccc(-c2ccc3ncnc(Nc4ccc(OCc5cccc(F)c5)c(Cl)c4)c3c2)o1", "Modifier": "=", "pIC50": 7.24}
{"Compound": "CCC(=O)N1CCN(c2ccc(-n3c(=O)ccc4cnc5ccc(-c6cnc7ccccc7c6)cc5c43)cc2C(F)(F)F)CC1", "Modifier": "=", "pIC50": 8.71}
{"Compound": "COc1cc(F)c(F)c(Nc2ccc(I)cc2F)c1NS(=O)(=O)C1(CC(O)CO)CC1 (stereo not drawn)", "Modifier": "<", "pIC50": 5.30}
